B1: IKZF1 (parent)
chain: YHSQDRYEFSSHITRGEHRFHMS

variants of: B1; test: protein stability index of a GFP-peptide fusion (GPS, HEK-293T) (PSI 1-6); higher = more stable; conditions: c terminus: native;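 further: lentivirally expressed fusions sorted by FACS into six bins by GFP to DsRed ratio, PSI derived from sequencing read proportions per bin multiplied by bin number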
Below, each of the variants is paired with its reported protein stability index value.
Output: the number by itself.

YHSQYRYEFSSHITRGEHRFHMS [D5Y] :: 2.05
YHSQDRYEFSSHITRGEHLFHMS [R19L] :: 2.54
YHSQDRYNFSSHITRGEHRFHMS [E8N] :: 3.99
EHSQDRYEFSSHITRGEHRFHMS [Y1E] :: 4
YHSQDRYEFSSHIQRGEHRFHMS [T14Q] :: 1.34

// fetch protein stability index given entry YHSQDRYEFSSHITRGEIRFHMS [H18I]
1.65

Quote protein stability index reported for YHSQDRYEFSVHITRGEHRFHMS [S11V] please.
1.6

For the variant YHSQDRYEFSSHITRGEFRFHMS [H18F] , give its measured protein stability index value.
2.66

Please give the documented protein stability index of YHSQDRYEFSCHITRGEHRFHMS [S11C]
1.68

Identify the reported protein stability index for the following entry. YHSQDRYEFSSTITRGEHRFHMS [H12T]
2.15

Output measured protein stability index for this item: YHSQDRYEFSSHITRGEQRFHMS [H18Q]
1.72

Tell us which protein stability index value is on record for YHSQDRYEFSSHITRGEHCFHMS [R19C]
3.13

Name the recorded protein stability index of the variant listed here: YHSQDRYEFSSHITRGEHRQHMS [F20Q]
2.5

Return protein stability index (reported value) for this variant: FHSQDRYEFSSHITRGEHRFHMS [Y1F]
1.73

Given the variant YHTQDRYEFSSHITRGEHRFHMS [S3T] , write its reported protein stability index.
2.13

Tell us which protein stability index value is on record for YHSQDRYEFSSHITRGDHRFHMS [E17D]
1.63

Return protein stability index (reported value) for this variant: YHSQDRYEFSSHITRGEHRSHMS [F20S]
2.05

Look up protein stability index of YHSQDYYEFSSHITRGEHRFHMS [R6Y] and report it.
2.24

Given the variant YHSQDRYEFSSHITRGEHRFHDS [M22D] , write its reported protein stability index.
1.94

Check the records and state protein stability index for YHSQDRYEFSAHITRGEHRFHMS [S11A]
2.36

State, in one line, measured protein stability index of YHSQDRYEFSSCITRGEHRFHMS [H12C]
2.66

Give the measured protein stability index for YVSQDRYEFSSHITRGEHRFHMS [H2V]
2.58
